Biological target: Avi-KRAS G12C (1-169) GppNHp/RAF1 RBD-3×FLAG (52-151) (Homo sapiens, UniProt P01116, G12C)
Construct: Avi-KRAS G12C (1-169) GppNHp; Avi (N)
Sequence (P01116 1-169 isoform P01116-2 G12C limits assumed): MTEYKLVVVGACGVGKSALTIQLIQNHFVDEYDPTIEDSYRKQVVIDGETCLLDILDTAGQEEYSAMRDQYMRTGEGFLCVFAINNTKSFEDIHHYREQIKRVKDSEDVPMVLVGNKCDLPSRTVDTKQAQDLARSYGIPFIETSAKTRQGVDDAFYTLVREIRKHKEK
Test: Raf1 RBD-KRAS G12C-GppNHp disruption assay (protein:protein interaction HTRF)
Measured quantity: IC50

C=CC(=O)N1CC[C@@H](N(CC)c2nc(OC[C@@H]3C[C@@H](F)CN3C)nc3cc(-c4ccc(F)c5sc(N)c(C#N)c45)c(F)cc23)[C@H]1C [Compound 139]; < 500 nM

What measured IC50 goes with C=CC(=O)N1CC[C@@H](N(C)c2nc(OC[C@@]34CCCN3C[C@H](F)C4)nc3cc(-c4ccc(F)c5sc(N)c(C#N)c45)c(F)cc23)[C@H]1C [Compound 15] ?
< 500 nM

Which IC50 is listed for C=CC(=O)N1CC[C@@H](N(C)c2nc(OC[C@@H]3CC4(CC4)CN3CC)nc3c(F)c(-c4ccc(F)c5sc(N)c(C#N)c45)c(Cl)cc23)[C@H]1C [Compound 97] ?
< 500 nM

Given the entry C=CC(=O)N1CC[C@H](N(CC)c2nc(OC[C@@]34CCCN3C[C@H](F)C4)nc3c(F)c(-c4ccc(F)c5sc(N)c(C#N)c45)c(C(F)(F)F)cc23)C1 (atropisomer, axis not shown) [Compound 171] , report its measured IC50.
< 500 nM

Can you share its IC50? I mean this compound: C=CC(=O)N1CC[C@@H](N(C)c2nc(OC[C@@]34CCCN3C[C@H](F)C4)nc3c(F)c(-c4ccc(F)c5sc(N)c(C#N)c45)c(C(F)(F)F)cc23)[C@@H]1C (atropisomer, axis not shown) [Compound 71]
500 to 5000 nM
